Origin of values: PubChem BioAssay (NCI)

- Tested on: MOLT-4 leukemia
- ASSAY COMMENT: NCI tumour cell line growth inhibition, 48 h
TGI: recorded values
Hi! Could you send only the number? It should be in µM, unit omitted.

| CHEMICAL SMILES | MEASURED TARGET | TEST RESULT |
| --- | --- | --- |
| CCOC(=O)Nc1c(C#N)[n+]([O-])c2cc(Cl)c(Cl)cc2[n+]1[O-] | MOLT-4 leukemia | 28.7 |
| COc1cc2cc(C(=O)N3C[C@@H](CCl)c4c3cc(N)c3ccccc43)[nH]c2c(OC)c1OC | MOLT-4 leukemia | 1.64 |
| C[C@]1(CO)[C@H]2CC[C@@]34C=C[C@@](CO)(CC[C@H]3[C@]2(C)CC[C@H]1O)C4 | MOLT-4 leukemia | 48.9 |

For `O=c1c(SSc2coc3cc(F)ccc3c2=O)coc2cc(F)ccc12` on MOLT-4 leukemia, measured TGI was 69.6

For `CC1=C[C@H]2c3c(c(O)c(O)c4oc5ccccc5c(=O)c34)[C@H](c3cc(O)c(O)c4oc5ccccc5c(=O)c34)[C@H]2C(C)(C)C1` on MOLT-4 leukemia, measured TGI was 24.1

* * *

- System: UACC-62 melanoma
Outcome field: choose from 1.0 (active), 0.0 (inactive)

| COMPOUND | DISCRETE LABEL |
| --- | --- |
| O=S(=O)(NCC1CCC(CNc2ccc(Cl)cc2)CC1)c1ccc(-c2ccccc2)cc1 (configuration not stated) | 0.0 |

Ask | Tell me the recorded outcome of this test for `O=C(Nc1ccc(F)cc1)c1c(NC(=O)C(F)(F)F)sc2c1CCCCC2` .
Reply | 0.0

Ask | Tell me the recorded outcome of this test for `COc1ccc(-c2cc(/C=C3\C(=O)Nc4ccc(Cl)cc43)[nH]n2)cc1` .
Reply | 0.0

Ask | Tell me the recorded outcome of this test for `Cc1nc2sc(C(=O)Nc3cccc4ccccc34)c(N)c2cc1C(=O)c1ccccc1` .
Reply | 0.0

* * *

- Tested on: A549 NSCLC
- ASSAY COMMENT: NCI tumour cell line growth inhibition, 48 h
TGI: recorded values

| COMPOUND | TEST RESULT |
| --- | --- |
| CN(C)c1ccc(/C=C2\N=C(NN)NC2=O)cc1 | > 100 µM |

Record C=C=C(CC)C(C(=O)OC)N(CC)CC (stereo unspecified) . Reported TGI: > 100 µM

Record `O=C(Nc1cccc(C(F)(F)F)c1)O/N=C(/Cl)CCl` . Reported TGI: > 100 µM

* * *

- Test system: OVCAR-5 ovarian
- ASSAY COMMENT: NCI tumour cell line growth inhibition, 48 h
TGI: recorded values

| COMPOUND | MEASURED TARGET | TGI |
| --- | --- | --- |
| O=C(Nc1ccc(F)cc1)c1c(NC(=O)C(F)(F)F)sc2c1CCCCC2 | OVCAR-5 ovarian | 13.1 µM |
| O=C1C[C@@H]2C(COC(=O)c3ccccc3)N(OCc3ccccc3)C[C@@H]2O1 (stereo partly specified) | OVCAR-5 ovarian | > 100 µM |
| CCN1C(=S)N(CC)C2C1NC(=S)N2/N=C/C=C/c1ccccc1 (stereo unspecified) | OVCAR-5 ovarian | 16.9 µM |
| Cn1ncc2c(N)nc(N3CCCCC3)nc21 | OVCAR-5 ovarian | > 100 µM |

Record CCC(=O)C(C)C1=Nc2nnc(CCCCCCCc3nnc4n3C(=O)C(C(C)C(=O)CC)=N4)n2C1=O (stereo unspecified) . Reported TGI: > 100 µM

Record CC(=O)O[C@H]1CC[C@@]2(C)C(=CC[C@H]3C4=CC=C(C(C)=O)[C@@]4(C)CCC32)C1 (stereo partly specified) . Reported TGI: > 100 µM
